# System: Vero cells
# Assay details: CC50 cytotoxicity, Promega CellTiter-Glo Luminescent Cell Viability Assay
# Format: cell-based, African green monkey
# Measurement conditions: 72-hour incubation, CellTiter-Glo, n = 3
Observed property: CC50

Here's what some known entries look like.
CCCCCCC#Cc1cncc(-c2nnc(SCc3ccc(C#N)cc3)n2C)c1 [drawing 130] : > 100 µM
CCCCCCC#Cc1cncc(-c2nnc(SCc3cc([N+](=O)[O-])cc([N+](=O)[O-])c3)n2C)c1 [drawing 133] : > 100 µM

Shift focus to the following entry.
What value of measured CC50 is listed for Cn1c(SCc2ccc(Cl)cc2)nnc1-c1cncc(C#Cc2ccccc2)c1 [drawing 138] ? > 100 µM

====

# System: Vero TMPRSS2 cells
# Assay details: Cytotoxicity at single concentration, CellTiter-Glo ATP quantitation
# Format: cell-based, African Green Monkey
# Measurement conditions: 100 uM, 72 hours
Entries are grouped by % Cell Viability Average into these classes: bin 1 (below 2%), bin 2 (2% to below 30%), bin 3 (30% or more)

Sample answers from the record:
CCCCCCC#Cc1cncc(-c2nnc(SCCn3c([N+](=O)[O-])cnc3C)n2C)c1 [drawing 121] : bin 1
CCCCCCC#Cc1cncc(-c2nnc(SCc3ccc([N+](=O)[O-])o3)n2C)c1 [drawing 120] : bin 1

Sort into band: CCCCCCC#Cc1cccc(-c2nnc(SCc3ccc(Cl)cc3)n2C)c1 [drawing 115] bin 1

// same read-out, input: CCCCCCC#Cc1cncc(-c2nnc(SCc3ccc(C)cc3)n2C)c1 [drawing 109] bin 2

// same read-out, input: CCCCCCC#Cc1cncc(-c2nnc(SCc3ccc(Cl)cc3)n2C)c1 [drawing 100] bin 3

// same read-out, input: CCCCCCC#Cc1cncc(-c2nnc(SCCCn3ccc(=O)[nH]c3=O)n2C)c1 bin 2

// same read-out, input: CCCCCCC#Cc1cncc(-c2nnc(SCc3ccc(C(F)(F)F)cc3)n2C)c1 [drawing 96] bin 3

====

# System: Vero TMPRSS2 cells
# Assay details: Cytotoxicity at single concentration, CellTiter-Glo ATP quantitation
# Type: cell-based, African Green Monkey
# Measurement conditions: 100 uM, 72 hours
Observed property: % Cell Viability Replicate 1 (%)
Your answer should be a plain number; it is taken to be in %.

CCCCCCC#Cc1cncc(-c2nnc(SCc3ccc(C(F)(F)F)cc3)n2C)c1 [drawing 96] : 74.34

What value of measured % Cell Viability Replicate 1 is listed for CCCCCCC#Cc1cncc(-c2nnc(SCc3ccc(Cl)cc3)n2C)c1 [drawing 117] ? 1.41

// same read-out, input: CCCCCCC#Cc1cncc(-c2nnc(SCc3cccc([N+](=O)[O-])c3)n2C)c1 26.28

// same read-out, input: CCCCCCC#Cc1cncc(-c2nnc(SCc3ccc([N+](=O)[O-])cc3)n2C)c1 [drawing 106] 39.61

====

Recorded measurements of % Cell Viability Replicate 2, one per entry
# System: Vero TMPRSS2 cells
# Assay details: Cytotoxicity at single concentration, CellTiter-Glo ATP quantitation
# Type: cell-based, African Green Monkey
# Measurement conditions: 100 uM, 72 hours
Your answer should be a plain number; it is taken to be in %.

CCCCCCC#Cc1cncc(-c2nnc(SCc3ccc(OC)cc3)n2C)c1 [drawing 99] : 48.95

What value of measured % Cell Viability Replicate 2 is listed for CCCCCCC#Cc1cncc(-c2nnc(SCc3cccc([N+](=O)[O-])c3)n2C)c1 ? 26.66

// same read-out, input: CCCCCCC#Cc1cncc(-c2nnc(S)n2C)c1 0.82

====

# Test system: Vero TMPRSS2 cells
# Assay details: Cytotoxicity at single concentration, CellTiter-Glo ATP quantitation
# Assay type: cell-based, African Green Monkey
# Measurement conditions: 125 uM, 72 hours
Decide using % Cell Viability Replicate 1: a value greater than or equal to 2% is condition met, a smaller one is condition not met.

Sample answers from the record:
CCCCCCC#Cc1cncc(-c2nnc(SCc3ccc(Cl)cc3)[nH]2)c1 [drawing 97] : condition met
CCCCCCC#Cc1cncc(-c2nnc(SCc3cc([N+](=O)[O-])cc([N+](=O)[O-])c3)n2C)c1 [drawing 104] : condition met
CCCCCCC#Cc1cncc(-c2nnc(SCc3ccc(Cl)c(F)c3)n2C)c1 [drawing 101] : condition met
CCCCCCC#Cc1cncc(-c2nnc(SCc3cc(F)cc(F)c3)n2C)c1 [drawing 123] : condition not met

Please tell me: is the compound CCCCCCC#Cc1cncc(C(=O)NN)c1 at or over 2% in terms of % Cell Viability Replicate 1? condition met

// same read-out, input: CCCCCCC#Cc1cncc(-c2nnc(SCc3cccc(Cl)c3)n2C)c1 [drawing 118] condition met

// same read-out, input: CCCCCCC#Cc1cncc(-c2nnc(SCc3ccc(Cl)cc3)[nH]2)c1 [drawing 119] condition not met

====

Recorded measurements of % Cell Viability Replicate 2, one per entry
# Test system: Vero TMPRSS2 cells
# Assay details: Cytotoxicity at single concentration, CellTiter-Glo ATP quantitation
# Format: cell-based, African Green Monkey
# Measurement conditions: 100 uM, 72 hours
Your answer should be a plain number; it is taken to be in %.

CCCCCCC#Cc1cncc(-c2nnc(SCc3ccc(Cl)cc3)n2C)c1 [drawing 114] : 2.47
CCCCCCC#Cc1cncc(-c2nnc(SCc3ccc(Br)cc3)n2C)c1 [drawing 103] : 41.40
CCCCCCC#Cc1cncc(-c2nnc(SCc3ccc([N+](=O)[O-])o3)n2C)c1 [drawing 120] : 1.31

What value of measured % Cell Viability Replicate 2 is listed for CCCCCCC#Cc1cncc(-c2nnc(SC[C@H]3O[C@@H](n4ccc(=O)[nH]c4=O)[C@@H]4OC(C)(C)O[C@@H]43)n2C)c1 ? 1.19

// same read-out, input: CCCCCCC#Cc1cncc(-c2nnc(SCc3ccc(C)cc3)n2C)c1 [drawing 109] 20.35

// same read-out, input: CCCCCCC#Cc1cncc(-c2nnc(SCc3ccc(C(F)(F)F)cc3)n2C)c1 [drawing 96] 66.36

====

Recorded measurements of log10(IC50), one per entry
# Test system: wild-type (WT) Mtb Erdman strain
# Assay details: MABA, Mtb Erdman strain
# Format: cell-based
# Measurement conditions: Mycobacterium tuberculosis, read-out: IC50 S.D. (μM) Mtb Erdman strain
All values: log10 IC50 [µM].

Here's what some known entries look like.
CCCCCCC#Cc1cncc(-c2nnc(SCc3ccc([N+](=O)[O-])cc3[N+](=O)[O-])n2C)c1 : 0.04
CCCCCCC#Cc1cncc(-c2nnc(SCc3cc([N+](=O)[O-])cc([N+](=O)[O-])c3)n2C)c1 [drawing 133] : -0.47
CCCCCCC#Cc1cncc(-c2nnc(SCc3ccc(C#N)cc3)n2C)c1 [drawing 130] : 1.43
Cn1c(SCc2ccc(Cl)cc2)nnc1-c1cncc(C#Cc2ccccc2)c1 [drawing 138] : 0.34

What value of measured log10(IC50) is listed for CCCCCCC#Cc1cncc(-c2nnc(SCc3ccc(Cl)c(F)c3)[nH]2)c1 ? 0.73

// same read-out, input: CCCCCCC#Cc1cncc(-c2nnc(SCc3ccc([N+](=O)[O-])o3)n2C2CC2)c1 [drawing 137] -1.30

====

# Test system: Vero TMPRSS2 cells
# Assay details: Cytotoxicity at single concentration, CellTiter-Glo ATP quantitation
# Type: cell-based, African Green Monkey
# Measurement conditions: 100 uM, 72 hours
Decide using % Cell Viability Average: a value greater than or equal to 2% is condition met, a smaller one is condition not met.

CCCCCCC#Cc1cncc(-c2nnc(SCc3cccc([N+](=O)[O-])c3)n2C)c1 : condition met
CCCCCCC#Cc1cncc(-c2nnc(SCc3ccc(Br)cc3)n2C)c1 [drawing 103] : condition met
CCCCCCC#Cc1cncc(-c2nnc(SCc3ccc([N+](=O)[O-])cc3)n2C)c1 [drawing 106] : condition met
CCCCCCC#Cc1cncc(-c2nnc(SCc3ccc(C#N)cc3)n2C)c1 [drawing 98] : condition met

Please tell me: is the compound CCCCCCC#Cc1cncc(-c2nnc(SCc3ccc(Cl)c(Cl)c3)n2C)c1 [drawing 111] at or over 2% in terms of % Cell Viability Average? condition met

// same read-out, input: CCCCCCC#Cc1cncc(-c2nnc(SC[C@H]3O[C@@H](n4ccc(=O)[nH]c4=O)[C@@H]4OC(C)(C)O[C@@H]43)n2C)c1 condition not met

// same read-out, input: CCCCCCC#Cc1cncc(-c2nnc(S)n2C)c1 condition not met

// same read-out, input: CCCCCCC#Cc1cncc(-c2nnc(SCc3ccc(OC)cc3)n2C)c1 [drawing 99] condition met

====

# Test system: Vero TMPRSS2 cells
# Assay details: Cytotoxicity at single concentration, CellTiter-Glo ATP quantitation
# Type: cell-based, African Green Monkey
# Measurement conditions: 100 uM, 72 hours
Observed property: % Cell Viability Replicate 1 (%)
Your answer should be a plain number; it is taken to be in %.

Here's what some known entries look like.
CCCCCCC#Cc1cncc(-c2nnc(SCc3ccc([N+](=O)[O-])o3)n2C)c1 [drawing 120] : 1.30
C#Cc1cncc(-c2nnc(SCc3ccc(Cl)cc3)n2C)c1 [drawing 113] : 3.02

What value of measured % Cell Viability Replicate 1 is listed for CCCCCCC#Cc1cncc(-c2nnc(SCCCn3ccc(=O)[nH]c3=O)n2C)c1 ? 9.07

// same read-out, input: CCCCCCC#Cc1cccc(-c2nnc(SCc3ccc(Cl)cc3)n2C)c1 [drawing 115] 1.97

// same read-out, input: CCCCCCC#Cc1cncc(-c2nnc(SCc3ccc(C#N)cc3)n2C)c1 [drawing 98] 75.34

// same read-out, input: CCCCCCC#Cc1cncc(-c2nnc(SCc3ccc(C)cc3)n2C)c1 [drawing 109] 20.58

// same read-out, input: CCCCCCC#Cc1cncc(-c2nnc(SC[C@H]3O[C@@H](n4ccc(=O)[nH]c4=O)[C@@H]4OC(C)(C)O[C@@H]43)n2C)c1 1.02

// same read-out, input: CCCCCCC#Cc1cncc(-c2nnc(SCc3ccc(Cl)cc3)n2C)c1 [drawing 102] 47.04

// same read-out, input: CCCCCCC#Cc1cncc(-c2nnc(SCc3ccc(Cl)cc3)n2C)c1 [drawing 100] 53.54
